These measurements were taken from patent US20100234351A1.

TARGET OR TEST SYSTEM: HER2 intracellular domain (Homo sapiens, UniProt P04626)
Construct: made in house; host or cells: SF-21 insect cells infected with recombinant baculovirus BAC-HER2
Sequence (P04626 676-1255): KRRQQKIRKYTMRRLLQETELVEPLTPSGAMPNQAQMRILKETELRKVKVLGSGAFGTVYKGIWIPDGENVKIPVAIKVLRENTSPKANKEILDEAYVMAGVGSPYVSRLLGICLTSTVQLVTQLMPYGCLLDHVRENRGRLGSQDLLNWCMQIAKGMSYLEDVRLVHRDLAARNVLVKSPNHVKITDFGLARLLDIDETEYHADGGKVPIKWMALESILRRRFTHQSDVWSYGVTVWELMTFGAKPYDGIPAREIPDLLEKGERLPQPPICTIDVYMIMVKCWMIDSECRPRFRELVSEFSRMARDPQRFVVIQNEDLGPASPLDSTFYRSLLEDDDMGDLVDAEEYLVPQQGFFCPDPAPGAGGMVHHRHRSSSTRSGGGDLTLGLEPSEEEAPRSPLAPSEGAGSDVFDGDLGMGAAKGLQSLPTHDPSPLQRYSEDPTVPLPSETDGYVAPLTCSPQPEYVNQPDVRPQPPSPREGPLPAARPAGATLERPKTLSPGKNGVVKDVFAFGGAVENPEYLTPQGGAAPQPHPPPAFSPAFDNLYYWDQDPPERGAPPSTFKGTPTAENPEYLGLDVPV
METHOD SUMMARY: Measurement of HER2 kinase inhibitory activity
Type: biochemical
MEASUREMENT SETUP: compound 1.0 μM, poly-Glu:Tyr (4:1) substrate, [γ-32P]ATP, read-out: Inhibitory rate (%) at 1.0 μM
From the text: Human HER2 gene was cloned by RT-PCR using total RNA prepared from MCF7 cells as a template. […]
ENDPOINT: inhibition at 1 µM (%)
Quick note: give the figure in %, leave out the unit.

Entry COC(=O)C1=Cc2c(ncnc2Nc2ccc(Oc3cccc(C(=O)NC(C)(C)C)c3)c(Cl)c2)NCC1 [Example 135] , inhibition at 1 µM reported as 97

For this compound ( CC(C)(C)NC(=O)c1cccc(Oc2ccc(Nc3ncnc4c3C=C(CNCCF)CCN4)cc2Cl)c1 [Example 234] ), measured inhibition at 1 µM is 98

Noted for CC(C)(CS(=O)(=O)CCO)NC(=O)C1=Cc2c(ncnc2Nc2ccc(Oc3cccc(S(=O)(=O)CC4CC4)c3)c(Cl)c2)NCC1 [Example 227] : its inhibition at 1 µM reads 93

Please fill in: inhibition at 1 µM reported for COC(=O)C1=Cc2c(ncnc2Nc2cnc(Oc3cccc(C(=O)NC(C)(C)C)c3)c(Cl)c2)NCC1 [Example 220] = 96

* * *

TARGET OR TEST SYSTEM: EGFR intracellular domain (Homo sapiens)
Construct: made in house; host or cells: SF-21 insect cells infected with recombinant baculovirus BAC-EGFR
Sequence (P00533 669-1210): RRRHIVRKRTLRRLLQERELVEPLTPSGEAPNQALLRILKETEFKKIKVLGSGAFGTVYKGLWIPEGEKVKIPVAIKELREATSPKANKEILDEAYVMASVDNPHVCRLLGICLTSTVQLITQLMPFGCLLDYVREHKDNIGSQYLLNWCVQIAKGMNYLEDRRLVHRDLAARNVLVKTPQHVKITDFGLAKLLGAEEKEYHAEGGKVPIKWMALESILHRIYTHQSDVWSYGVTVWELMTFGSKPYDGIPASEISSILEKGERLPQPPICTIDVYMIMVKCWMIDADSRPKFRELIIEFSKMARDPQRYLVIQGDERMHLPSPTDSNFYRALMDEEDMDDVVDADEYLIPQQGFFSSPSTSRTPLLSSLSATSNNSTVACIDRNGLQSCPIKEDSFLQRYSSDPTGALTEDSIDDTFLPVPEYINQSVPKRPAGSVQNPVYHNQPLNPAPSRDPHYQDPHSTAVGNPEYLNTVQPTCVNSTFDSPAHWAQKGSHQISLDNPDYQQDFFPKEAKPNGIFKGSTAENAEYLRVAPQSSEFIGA
METHOD SUMMARY: Assay of EGFR kinase inhibitory activity
Type: biochemical
MEASUREMENT SETUP: compound 1.0 μM, poly-Glu:Tyr (4:1) substrate, [γ-32P]ATP, read-out: Inhibitory rate (%) at 1.0 μM
Structures can show the parent of a compound that is named as a salt.
Please respond with reported inhibition at 1 µM for every item in the list.
Please answer using the number first and the unit second.

For this compound ( O=C(NCCS(=O)(=O)CCO)C1=Cc2c(ncnc2Nc2ccc(Oc3cccc(C(F)(F)F)c3)c(Cl)c2)NCC1 ), measured inhibition at 1 µM is 95%

Reported inhibition at 1 µM ( O=C(NCC(O)CO)C1=Cc2c(ncnc2Nc2ccc(Oc3cccc(C(F)(F)F)c3)c(Cl)c2)NCC1 (centres unmarked) ) = 97%

inhibition at 1 µM reported for this compound O=C(NCCOCCO)C1=Cc2c(ncnc2Nc2ccc(Oc3cccc(Cl)c3)c(Cl)c2)NCC1 [Example 143, hydrochloride] : 97%

O=C(NCCCn1ccnc1)C1=Cc2c(ncnc2Nc2ccc(Oc3cccc(C(F)(F)F)c3)c(Cl)c2)NCC1 has a reported inhibition at 1 µM of 95%

inhibition at 1 µM reading for O=C(NCCOCCO)C1=Cc2c(ncnc2Nc2ccc(Oc3cccc(C(F)(F)F)c3)c(Cl)c2)NCC1 : 96%

* * *

TARGET OR TEST SYSTEM: HER2 intracellular domain (Homo sapiens)
Construct: made in house; host or cells: SF-21 insect cells infected with recombinant baculovirus BAC-HER2
METHOD SUMMARY: Measurement of HER2 kinase inhibitory activity
Format: biochemical
MEASUREMENT SETUP: compound 1.0 μM, poly-Glu:Tyr (4:1) substrate, [γ-32P]ATP, read-out: Inhibitory rate (%) at 1.0 μM
Counter-ions that a name gives are not always drawn.
Please respond with reported inhibition at 1 µM for every item in the list.
# value in %; strip the unit string

So for CCOC(=O)/C=C/C1=Cc2c(ncnc2Nc2ccc(Oc3cccc(C(=O)NC(C)(C)C)c3)c(Cl)c2)NCC1 , the logged inhibition at 1 µM turned out to be 98

Sure, the documented inhibition at 1 µM for CC(C)(C)NC(=O)c1cccc(Oc2ccc(Nc3ncnc4c3C=C(CNC(C)(C)CS(=O)(=O)CCO)CCN4)cc2Cl)c1 [Example 214, dihydrochloride] is 99

Reported inhibition at 1 µM of CC(C)(CS(=O)(=O)CCO)NC(=O)C1=Cc2c(ncnc2Nc2ccc(Oc3cccc(C(F)(F)F)c3)c(Cl)c2)NCC1 : 95

Form field inhibition at 1 µM, entry CC(C)(C)OC(=O)N1CCC(Oc2ccc(Nc3ncnc4c3C=C(CO)CCN4)cc2Cl)CC1 : 92

Just so you know, measured inhibition at 1 µM for CN(CCS(C)(=O)=O)CC1=Cc2c(ncnc2Nc2ccc(Oc3cccc(C(=O)NC(C)(C)C)c3)c(Cl)c2)NCC1 came out at 99

Kindly note the recorded inhibition at 1 µM for COCCOCCNC(=O)C1=Cc2c(ncnc2Nc2ccc(Oc3cccc(C(F)(F)F)c3)c(Cl)c2)NCC1 , which is 96

Lab note: measured inhibition at 1 µM of CC(C)(C)NC(=O)c1cccc(Oc2ccc(Nc3ncnc4c3C=C(/C=N/OCCO)CCN4)cc2Cl)c1 was 97
